Reference source for all entries: paper PMC8596838

Overview of recorded GBA2/GBA ratio, 3 h for various molecules
Target Or System: GBA2 (Homo sapiens, UniProt Q9HCG7)
Construct: expressed in transfected cells; host or cells: HEK293T (GBA/GBA2 KO background for the fluorogenic assay; endogenous-GBA background with GBA2 and GBA3 overexpressed for ABPP and intact-cell assays)
Sequence (Q9HCG7 1-927): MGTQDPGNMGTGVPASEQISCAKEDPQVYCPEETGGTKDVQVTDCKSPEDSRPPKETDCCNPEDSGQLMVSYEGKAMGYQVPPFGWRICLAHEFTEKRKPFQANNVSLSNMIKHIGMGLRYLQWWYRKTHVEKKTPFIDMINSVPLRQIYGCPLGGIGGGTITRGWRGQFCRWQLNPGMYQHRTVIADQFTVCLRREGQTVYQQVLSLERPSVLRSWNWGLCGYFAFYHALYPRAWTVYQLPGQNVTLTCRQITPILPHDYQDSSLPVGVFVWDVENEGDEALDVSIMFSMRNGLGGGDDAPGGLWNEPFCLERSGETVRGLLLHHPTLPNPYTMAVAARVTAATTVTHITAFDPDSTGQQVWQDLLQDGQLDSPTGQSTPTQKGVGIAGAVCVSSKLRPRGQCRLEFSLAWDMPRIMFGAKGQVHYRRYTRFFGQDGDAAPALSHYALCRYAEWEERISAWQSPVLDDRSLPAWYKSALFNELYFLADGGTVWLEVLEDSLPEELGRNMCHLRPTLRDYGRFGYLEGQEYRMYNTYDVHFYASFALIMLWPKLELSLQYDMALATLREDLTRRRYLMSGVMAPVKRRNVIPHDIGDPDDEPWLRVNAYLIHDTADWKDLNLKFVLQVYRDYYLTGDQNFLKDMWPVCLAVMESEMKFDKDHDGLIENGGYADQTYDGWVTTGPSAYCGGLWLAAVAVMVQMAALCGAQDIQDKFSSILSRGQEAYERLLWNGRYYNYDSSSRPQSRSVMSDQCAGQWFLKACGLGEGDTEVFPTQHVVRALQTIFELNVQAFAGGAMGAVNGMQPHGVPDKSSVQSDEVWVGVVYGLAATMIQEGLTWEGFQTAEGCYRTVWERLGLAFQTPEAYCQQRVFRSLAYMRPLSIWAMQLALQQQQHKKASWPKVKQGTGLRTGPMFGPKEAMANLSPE
Assay Overview: Fluorogenic substrate enzymatic assay, lysate of GBA/GBA2 KO HEK293T cells overexpressing GBA2
Type: biochemical
Measurement Conditions: IC50 ratio, in vitro 3 h
Form rule: numeric answer, no unit written next to it.

Consider the following illustrative entries.
O[C@H]1[C@H](O)[C@@H](O)[C@@H]2O[C@@H]2[C@@H]1O [compound 13, Conduritol B‐epoxide, reference compound] ... 40
O[C@H]1[C@H](O)[C@@H](O)[C@@H]2N[C@@H]2[C@@H]1O [compound 14, conduritol B‐aziridine, reference compound] ... 6.6
O[C@@H]1[C@@H](O)[C@H](O)C[C@H]2O[C@@H]12 ... 272

Now examine the next entry.
Read the entry `O[C@@H]1[C@@H](O)[C@H](O)C[C@H]2N[C@@H]12` and write its reported GBA2/GBA ratio, 3 h.
22
